# experimental-system: recombinant human CL receptor/RAMP1 (Homo sapiens, UniProt O60894+Q16602)
# Construct: expressed in transfected cells
# Sequence (Q16602 23-461): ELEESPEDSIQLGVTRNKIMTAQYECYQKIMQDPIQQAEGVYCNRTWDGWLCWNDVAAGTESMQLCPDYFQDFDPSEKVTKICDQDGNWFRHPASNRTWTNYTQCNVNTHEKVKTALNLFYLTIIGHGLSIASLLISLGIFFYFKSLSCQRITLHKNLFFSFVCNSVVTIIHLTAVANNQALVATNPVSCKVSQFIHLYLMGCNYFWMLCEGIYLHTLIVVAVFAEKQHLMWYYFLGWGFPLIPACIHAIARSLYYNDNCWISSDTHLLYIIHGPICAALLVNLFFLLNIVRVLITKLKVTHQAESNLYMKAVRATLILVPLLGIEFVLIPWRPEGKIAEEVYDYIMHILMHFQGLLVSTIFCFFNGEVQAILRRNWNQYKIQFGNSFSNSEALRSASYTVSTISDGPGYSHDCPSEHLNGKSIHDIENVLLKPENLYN
# Sequence (O60894 27-148): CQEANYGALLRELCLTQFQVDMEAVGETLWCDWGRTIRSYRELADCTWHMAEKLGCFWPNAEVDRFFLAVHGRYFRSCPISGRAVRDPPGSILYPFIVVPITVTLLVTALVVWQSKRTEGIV
# assay-info: Recombinant receptor functional assay (Assay C), cAMP HTRF
# Assay type: cell-based
# reported-conditions: Assay C: 3,500 cells/well, human α-CGRP 1 nM, cAMP inflection point
Could you please report measured IC50 for the items listed next?
Numbers only, in nM.

Worked cases, IC50 given:
C[C@@H]1[C@H](c2ccccc2)C[C@H](NC(=O)c2ccc3c(c2)C[C@@]2(C(=O)Nc4ncccc42)[C@@H]3C)C(=O)N1CC(F)(F)F (single isomer, unassigned)    5.4
C[C@@H]1[C@H](c2ccccc2)C[C@H](NC(=O)c2ccc3c(c2)C[C@]2(C(=O)Nc4ncccc42)[C@H]3C)C(=O)N1CC(F)(F)F (single isomer, unassigned)    0.05
C[C@@H]1[C@H](c2ccccc2)C[C@H](NC(=O)c2ccc3c(c2)C[C@@]2(C(=O)Nc4ncccc42)[C@H]3C)C(=O)N1CC(F)(F)F (single isomer, unassigned)    6.7

Okay, now this molecule:
stdin: Look up and state reported IC50 for C[C@@H]1[C@H](c2ccccc2)C[C@H](NC(=O)c2ccc3c(c2)C[C@]2(C(=O)Nc4ncccc42)[C@@H]3C)C(=O)N1CC(F)(F)F (single isomer, unassigned)
stdout: 0.68

---

# experimental-system: recombinant human CL receptor/RAMP1 (Homo sapiens, UniProt O60894+Q16602)
# Construct: expressed in transfected cells
# assay-info: Recombinant receptor functional assay (Assay B), cAMP HTRF
# Format: cell-based
# reported-conditions: Assay B: 2,000 cells/well, human α-CGRP 1.2 nM, cAMP inflection point
measure-name: IC50 (nM)
Numbers only, in nM.

CC1C(c2ccccc2)CC(NC(=O)c2cnc3c(c2)CC2(O3)C(=O)Nc3ncccc32)C(=O)N1CC(F)(F)F (single isomer, unassigned) [3 isomer A]    129

Then there is this molecule:
stdin: Tell us which IC50 value is on record for CC1C(c2ccccc2)CC(NC(=O)c2cnc3c(c2)CC2(O3)C(=O)Nc3ncccc32)C(=O)N1CC(F)(F)F (single isomer, unassigned) [3 isomer B]
stdout: 1.5

Where do the numbers come from? From patent US9296750B2.
